Molecular target: NAD-dependent deacetylase Sirtuin 1 (human)
Sequence (Q96EB6 2-747 limits assumed): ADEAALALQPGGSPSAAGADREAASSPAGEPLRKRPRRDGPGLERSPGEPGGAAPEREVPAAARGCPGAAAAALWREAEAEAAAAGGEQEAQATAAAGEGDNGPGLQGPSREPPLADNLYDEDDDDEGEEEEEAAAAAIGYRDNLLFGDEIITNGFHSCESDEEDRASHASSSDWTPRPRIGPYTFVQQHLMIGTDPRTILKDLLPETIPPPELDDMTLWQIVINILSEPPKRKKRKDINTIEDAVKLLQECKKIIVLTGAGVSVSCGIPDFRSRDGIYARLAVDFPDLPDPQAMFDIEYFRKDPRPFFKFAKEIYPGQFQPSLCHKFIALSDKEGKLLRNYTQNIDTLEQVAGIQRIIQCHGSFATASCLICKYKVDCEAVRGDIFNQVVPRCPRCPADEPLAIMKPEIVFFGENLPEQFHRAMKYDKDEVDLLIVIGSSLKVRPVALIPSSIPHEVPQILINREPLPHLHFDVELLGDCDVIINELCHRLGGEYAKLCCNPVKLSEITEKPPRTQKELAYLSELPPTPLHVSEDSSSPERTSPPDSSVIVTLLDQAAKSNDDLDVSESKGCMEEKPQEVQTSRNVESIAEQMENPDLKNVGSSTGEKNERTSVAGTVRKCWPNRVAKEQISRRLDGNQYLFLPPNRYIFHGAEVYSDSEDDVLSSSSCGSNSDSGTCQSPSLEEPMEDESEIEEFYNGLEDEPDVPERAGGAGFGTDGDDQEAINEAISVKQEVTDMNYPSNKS
Assay: primary screen, delta tm
Parameters: single well (n = 1)
Conditions: 10 µM
Over roughly 3,200 compounds, “TSA(without NAD+) / Primary screening (TSA) / delta Tm (K)” has its median near -0.07; the highest 2% begin near 0.37. What follows is part of a selection rich in the highest values, with near analogues and random picks from the rest.
Returns rule met if the recorded TSA(without NAD+) / Primary screening (TSA) / delta Tm (K) is greater than or equal to 0.4 K, and rule not met otherwise.

| compound | label |
| --- | --- |
| COc1ccc(NC(=O)COc2ccc(C(=O)NCC34CC5CC(CC(C5)C3)C4)cc2OC)cc1 | rule not met |
| CCCCCCCCNC(=O)/C(C#N)=C/c1c[nH]c2ccccc12 | rule met |
| CC(C)CCN1C(=O)c2ccc(C(=O)OCC(=O)NC(C)C34CC5CC(CC(C5)C3)C4)cc2C1=O (centres unmarked) | rule met |
| Cc1cccc(Nc2nnc(SCC(=O)Nc3ccc(C(N)=O)cc3)s2)c1 | rule not met |
| Cc1sc2ncnc(N3CCC(C(=O)Nc4sc5c(c4C(N)=O)CCCC5)CC3)c2c1C | rule not met |
| Cc1ccc(-c2nn(-c3ccccc3)cc2C(=O)NCc2nnc3ccccn23)cc1 | rule not met |
| Cc1ccc(NC(=O)c2cccc(S(=O)(=O)N(C)c3ccc(C)cc3)c2)cc1 | rule met |
| COc1ccccc1NC(=O)c1ccc(NC(=O)COC(=O)C23CC4CC(CC(C4)C2)C3)cc1 | rule met |
| O=C(O)C1CC(=O)N(c2cccc(-c3nc(C4CC4)no3)c2)C1 (centres unmarked) | rule not met |
| Cc1ccc(N(C)S(=O)(=O)c2cccc(C(=O)Nc3sccc3C(N)=O)c2)cc1 | rule not met |
| CN(c1cccc(Cl)c1)S(=O)(=O)c1cccc(C(=O)Nc2ncc(C(N)=O)s2)c1 | rule not met |
| COc1ccc(C(=O)C2=C(O)C(=O)N(CCCN3CCOCC3)C2c2ccccc2)cc1C (centres unmarked) | rule not met |
| CC(=O)Nc1ccc(NC(=O)c2cccc(S(=O)(=O)N(C)c3ccc(C)cc3)c2)cc1 | rule not met |
| Cc1nc(COc2ccc(C(=O)Nc3ccc(S(=O)(=O)Nc4cccc(F)c4)cc3)cc2)cs1 | rule not met |
| Cc1ccc(N(C)S(=O)(=O)c2cccc(C(=O)Nc3ccc(C(N)=O)cc3)c2)cc1 | rule met |
| CN(c1ccccc1)S(=O)(=O)c1cccc(NC(=O)c2ccc(C(N)=O)cc2)c1 | rule not met |
| CN(c1cccc(Cl)c1)S(=O)(=O)c1cccc(C(=O)Nc2cc(C(N)=O)cc(C(N)=O)c2)c1 | rule not met |
| NC(=O)c1cccc(NC(=O)c2cc3c(s2)-c2ccccc2CC3)c1 | rule met |
| CN(c1cccc(Cl)c1)S(=O)(=O)c1cccc(C(=O)Nc2sccc2C(N)=O)c1 | rule not met |
| O=C1NC(=S)NC(=O)C1=Cc1cn(-c2ccccc2)nc1-c1cc2ccccc2o1 | rule not met |
| CC(=O)Nc1ccc(NC(=O)c2cccc(C(N)=O)c2)cc1C | rule not met |
| NC(=O)c1ccc(C(=O)OCC(=O)Nc2ccccc2-c2ccccc2)cc1 | rule not met |
| Cc1ccc(Nc2nnc(SCC(=O)Nc3cc(C)c(C)cc3[N+](=O)[O-])s2)cc1 | rule not met |
| COc1ccc(NC(=O)c2ccccc2NC(=O)COC(=O)C23CC4CC(CC(O)(C4)C2)C3)cc1 | rule not met |
| Cc1nnc(CNC(=O)c2cc(-c3ccccc3)nc3c(C(N)=O)ncn23)s1 | rule not met |
| COc1ccc(N(C)S(=O)(=O)c2cccc(C(=O)Nc3ncc(C(N)=O)s3)c2)cc1 | rule not met |
| CCOC(=O)c1ccc(S(=O)(=O)N2CCC(C(=O)OCC(=O)NCC34CC5CC(CC(C5)C3)C4)CC2)cc1 | rule not met |
| CCOc1ccc(/C=C(/C#N)C(=O)c2c[nH]c3cc(F)ccc23)cc1 | rule not met |
| N#CC(C(=O)c1ccc(NS(=O)(=O)c2ccccc2)cc1)c1nc(-c2ccccn2)cs1 (centres unmarked) | rule met |
| COc1ccc(NC(=O)CSc2nnc(Nc3ccc(SC(F)F)cc3)s2)cc1OC | rule met |
| COc1ccc(NC(=O)c2ccc(NC(=O)COC(=O)C34CC5CC(CC(Br)(C5)C3)C4)cc2)cc1 | rule met |
